assay: Cytotoxicity against human SH-SY5Y cells assessed as reduction in cell viability after 24 hrs by MTT assay; assay type: toxicity, cell-based
property measured: IC50 at 24 h (µM)
Note: unit µM is implicit; provide only the numeric part.

Ask: What does the record list as IC50 at 24 h for COc1ccccc1OCCNCC1CSC2(CCCCC2)S1 (centres undefined) ?
Result: 51

Ask: What does the record list as IC50 at 24 h for OO [HYDROGEN PEROXIDE] ?
Result: 195

Ask: What does the record list as IC50 at 24 h for C=C(C)[C@H]1Cc2c(ccc3c2O[C@@H]2COc4cc(OC)c(OC)cc4[C@@H]2C3=O)O1 ?
Result: 74.1

Now examine the next entry.
Ask: What does the record list as IC50 at 24 h for CC[C@H]1/C=C/C=C/C[C@@H](C)[C@H](O)[C@@](C)(O)C(=O)[C@@H](C)[C@H](O)[C@@H](C)C(=O)[C@@H](C)[C@H](O)[C@@H](C)/C=C/C(=O)O[C@@H]2[C@H](C)[C@H](CC1)O[C@]1(CC[C@H](C)[C@H](C[C@@H](C)O)O1)[C@H]2C ?
Result: 29
